Cited source: patent US20260242450A1

Biological target: HIV-1 envelope proteins of the panel of 12 global reference pseudovirus strains of HIV-1 ("global panel")
assay-readout: geometric mean IC50, TZM-bl cell pseudovirus neutralization assay (µg/mL)
Just the number please, in µg/mL, no unit attached.

Query :: Form field: reported geometric mean IC50, TZM-bl cell pseudovirus neutralization assay of 01_D03 (antibody, V domains shown) VH: HVQLWQSGAEVKKPGASVKISCSAWGFGTTSGYSFRDYRVHWVRHIAGQGFQWMGHMQPRYGAVNYARQFQGRITMTREVSFDASGGTAYMELRSLRSDDTAVYYCVTHKLYDGEDASDLTWRLDPWGQGTRVIVSS VL: GVHLTQSPASLSASVGDRVTFTCQASQDITNAINWYQLRPGKTPKLMIHDGSTLRRGVPSRFAGSGFGTKFTFTIDNLQPEDLATYFCQHYEFFPPVGTQVELN
Result :: 0.021
